assay-target: DRB1*0901 (Homo sapiens, UniProt P01903+P01911, A100R/A103E/D57H/D86V/F55Y/F60I/F76Y/I96F/K127E/L162R/M171V/P40D/Q125H/Q99R/R33Q/R42F/S133A/S66N/T210M/V115G/W38K/Y107V/Y59G/Y89S)
protocol-details: biochemical
Format: binding
test-context: read-out: IC50 nM to purified HLA DRB1*0901

cpd-smiles: CC[C@H](C)[C@H](NC(=O)[C@H](CCCCN)NC(=O)[C@H](CC(N)=O)NC(=O)[C@H](C)NC(=O)[C@H](CCCCN)NC(=O)[C@H](CCC(=O)O)NC(=O)[C@H](CC(C)C)NC(=O)[C@H](Cc1ccc(O)cc1)NC(=O)[C@H](Cc1ccc(O)cc1)NC(=O)[C@@H](NC(=O)[C@H](Cc1c[nH]cn1)NC(=O)[C@@H](NC(=O)[C@H](CCC(=O)O)NC(=O)[C@H](CCCNC(=N)N)NC(=O)[C@@H](N)CCCNC(=N)N)C(C)C)[C@@H](C)CC)C(=O)O
units: nM
bound-operator: =
IC50: 851
--
cpd-smiles: CC[C@H](C)[C@H](NC(=O)[C@H](CC(=O)O)NC(=O)[C@H](CCCCN)NC(=O)[C@H](CC(=O)O)NC(=O)[C@H](CCSC)NC(=O)[C@@H](NC(=O)[C@H](C)NC(=O)[C@H](CCC(N)=O)NC(=O)[C@H](CC(=O)O)NC(=O)[C@H](CCSC)NC(=O)[C@H](CCCNC(=N)N)NC(=O)[C@@H](NC(=O)[C@H](CS)NC(=O)[C@H](CC(C)C)NC(=O)[C@@H](N)CO)[C@@H](C)CC)[C@@H](C)CC)C(=O)O
units: nM
bound-operator: =
IC50: 6900
--
cpd-smiles: CC[C@H](C)[C@H](NC(=O)[C@@H](N)Cc1ccc(O)cc1)C(=O)N[C@@H](CCC(N)=O)C(=O)N[C@@H](CCSC)C(=O)N[C@@H](CS)C(=O)N[C@H](C(=O)N[C@@H](CCC(=O)O)C(=O)N[C@@H](CC(C)C)C(=O)N[C@@H](CCCCN)C(=O)N[C@@H](CC(C)C)C(=O)N[C@@H](CO)C(=O)N[C@@H](CC(=O)O)C(=O)N[C@@H](Cc1ccc(O)cc1)C(=O)N[C@@H](CCC(=O)O)C(=O)NCC(=O)O)[C@@H](C)O
units: nM
bound-operator: >
IC50: 10000

----------
Here the recorded IC50 is given for each entry.
assay-target: DRB1*0301 (Homo sapiens, UniProt P01903+P01911, A100K/A102G/A103R/A169T/F55Y/I96L/K41T/L162R/M171V/P40S/Q125H/Q178H/Q39Y/R42S/S66N/T106N/T262R/W38E/Y61H)
Construct: made in house; host or cells: EBV-transformed homozygous human B cell lines, transfected fibroblasts or single-allele 721.221 transfectants
Sequence (P01903 26-254, other chains not shown): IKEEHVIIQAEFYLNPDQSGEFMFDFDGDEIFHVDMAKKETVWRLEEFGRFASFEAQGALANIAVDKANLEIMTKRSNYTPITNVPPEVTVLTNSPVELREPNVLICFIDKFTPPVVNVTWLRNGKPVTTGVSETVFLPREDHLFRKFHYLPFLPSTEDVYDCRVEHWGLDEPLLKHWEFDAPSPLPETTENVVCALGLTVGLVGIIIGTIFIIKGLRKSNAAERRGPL
protocol-details: biochemical
Type: binding
Where no end group is shown, it is not given here.
measured-quantity: IC50 (nM)

record-sequence: CEQIADSQHRSHRQM [Flu.M1.154]
measured-quantity: IC50
measured-result: 804
//
record-sequence: LILYDKEEIRRIWRQ [Flu.NP.111]
measured-quantity: IC50
measured-result: 22
//
record-sequence: PVHFRNQVKIRRRVD [Flu.PB2.135]
measured-quantity: IC50
measured-result: 458

Data origin: patent US9511134B2
